Where do the numbers come from? From patent US20150368338A1.

Listed here are binders together with their documented pKd.
targetDesc: T1, human IFN-ω (human, UniProt P05000 24-195)
T1 construct: also called interferon omega
assayNotes: ProteOn, one antigen concentration
pKd: −log10 of the molar value.

- binder: "IFWM3309 (antibody, V domains shown, VH IFWH591, VL IFWL1006; converted mAb; also called IFWB3044) VH: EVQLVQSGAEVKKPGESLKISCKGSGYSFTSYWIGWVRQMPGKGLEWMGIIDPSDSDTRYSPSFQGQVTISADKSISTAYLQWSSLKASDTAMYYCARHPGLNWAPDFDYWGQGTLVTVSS VL: DIQMTQSPSSLSASVGDRVTITCRASQSIGGFLNWYQQKPGKAPKLLIYFASSLQSGVPSRFSGSGSGTDFTLTISSLQPEDFATYYCQQSYSLPITFGQGTKVEIK"
  pKd: 10.26
- binder: "IFWM3316 (antibody, V domains shown, VH IFWH591, VL IFWL1022; converted mAb; also called IFWB3051) VH: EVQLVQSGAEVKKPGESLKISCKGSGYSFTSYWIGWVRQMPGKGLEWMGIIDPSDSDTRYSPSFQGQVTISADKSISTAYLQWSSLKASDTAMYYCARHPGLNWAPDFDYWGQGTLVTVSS VL: DIQMTQSPSSLSASVGDRVTITCRASQSINEFLNWYQQKPGKAPKLLIYFASSLQSGVPSRFSGSGSGTDFTLTISSLQPEDFATYYCQQSYSTPLTFGQGTKVEIK"
  pKd: 10.38
